The origin of these recorded values is ChEMBL document CHEMBL4673226.

- protocol summary: Solubility in pH 6.5 solution
- settings: pH 6.5 solution
value type: solubility

- molecule: "CC(CCO)n1nc(-c2cnc3cc(OC4CC4)ccc3c2)c(C(N)=O)c1N (configuration not stated)"
  solubility: "> 100 µM"

Return reported solubility; argument: CC(CCO)n1nc(-c2ccc3nc(OC4CC4)ccc3c2)c(C(N)=O)c1N (configuration not stated) 98 µM

* * *

- protocol summary: Clearance in mouse at 25 mg/kg, po
- Format: ADME, organism-based
- settings: in vivo
For each record, write down the corresponding CL/F.
Give bare numbers, in mL/min.

These recorded examples may help you get a feel for the data.
- compound: "CCOc1ccc2cc(-c3nn(C(C)(C)CO)c(N)c3C(N)=O)cnc2c1"
  CL/F (mL/min): 1
- compound: "CC(CCO)n1nc(-c2ccc3cc(OC4CC4)ccc3c2)c(C(N)=O)c1N (stereo not drawn)"
  CL/F (mL/min): 0.3
- compound: "CCOc1ccc2cc(-c3nn(C(C)CCO)c(N)c3C(N)=O)ccc2c1 (stereo not drawn)"
  CL/F (mL/min): 0.8

Dear reader, for each entry below, please note its CL/F.
1. CC(CCO)n1nc(-c2ccc3nc(OC4CC4)ccc3c2)c(C(N)=O)c1N (stereo not drawn)
2. CC(C)(CO)n1nc(-c2ccc3cc(OC4CC4)ccc3c2)c(C(N)=O)c1N
3. CC(C)(CCO)n1nc(-c2ccc3nc(OC4CC4)ccc3c2)c(C(N)=O)c1N
4. CC(C)(CCO)n1nc(-c2ccc3cc(OC4CC4)ccc3c2)c(C(N)=O)c1N
5. CCOc1ccc2cc(-c3nn(C(C)(C)CO)c(N)c3C(N)=O)ccc2c1
6. CCOc1ccc2cc(-c3nn(CC(C)(C)CO)c(N)c3C(N)=O)ccc2c1

1: 0.7; 2: 0.3; 3: 6.7; 4: 1; 5: 0.2; 6: 2.1

* * *

- protocol summary: Solubility in pH 6.5 solution
- settings: buffer
I'd appreciate it if you could supply log10(solubility) values for the items below.
// units: µM (pre-log); metric: solubility; scale: log10

Sample answers from the record:
- compound: "CCOc1ccc2cc(-c3nn(C(C)(C)CO)c(N)c3C(N)=O)ccc2c1"
  value measured: 0.90
- compound: "CC(C)(CO)n1nc(-c2ccc3cc(OC4CC4)ccc3c2)c(C(N)=O)c1N"
  value measured: 1.97
- compound: "CC(C)(CO)n1nc(-c2cnc3cc(OC4CC4)ccc3c2)c(C(N)=O)c1N"
  value measured: 1.65
- compound: "CCOc1ccc2cc(-c3nn(CC(C)(C)CO)c(N)c3C(N)=O)ccc2c1"
  value measured: 1.31

# next compound below
Tell me the measured log10(solubility) of CCOc1ccc2cc(-c3nn(C(C)CCO)c(N)c3C(N)=O)ccc2c1 (stereo not given) , please. 1.75

* * *

- protocol summary: Solubility in pH 2.0 solution
- settings: buffer
solubility vs 90 µM: at or above is satisfied, below is not satisfied.

Worked set:
- molecule: "CCOc1ccc2cc(-c3nn(CC(C)(C)CO)c(N)c3C(N)=O)ccc2c1"
  class name: "satisfied"
- molecule: "CC(C)(CCO)n1nc(-c2ccc3nc(OC4CC4)ccc3c2)c(C(N)=O)c1N"
  class name: "satisfied"
- molecule: "CC(C)(C)n1nc(-c2ccc3cc(OC4CC4)ccc3c2)c(C(N)=O)c1N"
  class name: "not satisfied"
- molecule: "CC(C)(CCO)n1nc(-c2ccc3cc(OC4CC4)ccc3c2)c(C(N)=O)c1N"
  class name: "satisfied"
- molecule: "CCOc1ccc2cc(-c3nn(C(C)CCO)c(N)c3C(N)=O)cnc2c1 (stereo not given)"
  class name: "not satisfied"
- molecule: "CC(CCO)n1nc(-c2ccc3cc(OC4CC4)ccc3c2)c(C(N)=O)c1N (stereo not given)"
  class name: "satisfied"

Identify whether the reported solubility of the following molecule is 90 µM or greater: "CCOc1ccc2cc(-c3nn(C(C)(C)CO)c(N)c3C(N)=O)ccc2n1" satisfied

Does solubility meet or surpass 90 µM for "CCOc1ccc2cc(-c3nn(C(C)(C)CO)c(N)c3C(N)=O)ccc2c1" ? not satisfied
